Parameter self-cleavage: see the listing below.
B1: HDV Ribozyme (parent)
chain: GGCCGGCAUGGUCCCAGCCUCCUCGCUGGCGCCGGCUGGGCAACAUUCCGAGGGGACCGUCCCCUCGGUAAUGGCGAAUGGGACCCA

- Variants of: B1
- measurement.notes: self-cleavage, relative activity (ratio to wild type); higher = more cleavage; co-transcriptional

Documented self-cleavage of A71U C75U : 0.218

Documented self-cleavage of G6U C13G : 0

Documented self-cleavage of U12A C13A : 0.0378

Documented self-cleavage of G25C U46G : 0
